Data provenance: PubChem BioAssay

- measurement target: Potassium voltage-gated channel subfamily KQT member 1 (Homo sapiens)
- assay remarks: KCNQ1 channel current potentiators, confirmation, orthogonal assay for KCNQ1 potentiator project, IonWorks patch clamp, KCNQ1-CHO cells (AID 493184)
- test settings: automated patch clamp current, at 10 µM
Calls of active or inactive are those of the source.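 The calls were made as follows: active = current rise at least 3 SD above the untreated control mean in each of two repeat wells; inactive = the rest.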
Classes to choose from: 1.0 (active), 0.0 (inactive)

1) Cc1c(/C=N\NC(=O)c2ccc(F)cc2)cnn1C : 0.0
2) CCOC(=O)N1CCC(N2C(=O)c3ccc(C(=O)NCCC(C)C)cc3C2=O)CC1 : 0.0
3) O=c1oc2cc(OCCO)ccc2c2c1CCCC2 : 0.0
4) CCOC(=O)c1sc(C)nc1C1CCN(C(=O)OCC)CC1 : 0.0
5) c1csc(-c2csc3ncnc(NCCCN4CCOCC4)c23)c1 : 0.0

Query block: Recorded test outcome, item "Cc1ccc(NC(=O)C(=O)NNC(=O)c2cccs2)cc1"
Result block: 0.0

Query block: Identify the outcome logged in this assay for the molecule shown: "N=C1S/C(=C\c2ccc(-c3cccc(Cl)c3)o2)C(=O)N1c1nccs1"
Result block: 0.0

Query block: Recorded test call requested for "O=C(NC(=S)Nc1nc2ccccc2s1)c1ccco1"
Result block: 0.0

Query block: So what was the verdict on "Cc1cc(SCNC(=O)c2ccccc2)ncn1" in this test?
Result block: 0.0

Query block: Any idea what this test logged for "Cc1cc(S(=O)(=O)N2CCOCC2)ccc1OCC(=O)NCc1ccccn1" ?
Result block: 0.0

Query block: Per the assay record, what outcome was assigned to CCCCCCCN1N=C(C)C(C(=O)c2ccccc2)C1=O (centres undefined) ?
Result block: 0.0

Query block: What call does the record list for "COc1ccc(-c2csc(NC(=O)C3=NN(c4ccccc4)C(=O)CC3)n2)cc1" ?
Result block: 1.0

Query block: Status in this test for "O=C(NC(=S)N(Cc1ccccc1)Cc1ccccc1)c1ccccc1F" ?
Result block: 0.0

Query block: Recorded test call requested for "O=C(Nc1ccc(N2CCN(c3ccc(O)cc3)CC2)cc1)Oc1ccccc1"
Result block: 0.0

Query block: Returns: the outcome recorded for COC(=O)c1c(N2C(=O)CC(Sc3ncccc3C(=O)O)C2=O)sc(C)c1C (centres undefined) in this assay.
Result block: 0.0

Query block: Test call, this molecule: "COc1ccc(CN(C)C(=O)c2ccc3ccccc3n2)cc1F"
Result block: 0.0

Query block: # outcome recorded in this test, key = "CC(C)C(=O)Nc1c(-c2ccccc2F)c(=O)c2ccccc2n1C"
Result block: 0.0

Query block: Per the assay record, what outcome was assigned to "Cc1ccc(OCC(=O)NCCCNC(=O)c2ccncc2)cc1C" ?
Result block: 0.0

Query block: Which outcome did this test record for the molecule "O=C(O)CCn1c(-c2ccccc2)cc2ccccc21" ?
Result block: 0.0

---

- measurement target: Potassium voltage-gated channel subfamily KQT member 1 (Homo sapiens) (UniProt P51787)
- Sequence (P51787 whole entry, looked up): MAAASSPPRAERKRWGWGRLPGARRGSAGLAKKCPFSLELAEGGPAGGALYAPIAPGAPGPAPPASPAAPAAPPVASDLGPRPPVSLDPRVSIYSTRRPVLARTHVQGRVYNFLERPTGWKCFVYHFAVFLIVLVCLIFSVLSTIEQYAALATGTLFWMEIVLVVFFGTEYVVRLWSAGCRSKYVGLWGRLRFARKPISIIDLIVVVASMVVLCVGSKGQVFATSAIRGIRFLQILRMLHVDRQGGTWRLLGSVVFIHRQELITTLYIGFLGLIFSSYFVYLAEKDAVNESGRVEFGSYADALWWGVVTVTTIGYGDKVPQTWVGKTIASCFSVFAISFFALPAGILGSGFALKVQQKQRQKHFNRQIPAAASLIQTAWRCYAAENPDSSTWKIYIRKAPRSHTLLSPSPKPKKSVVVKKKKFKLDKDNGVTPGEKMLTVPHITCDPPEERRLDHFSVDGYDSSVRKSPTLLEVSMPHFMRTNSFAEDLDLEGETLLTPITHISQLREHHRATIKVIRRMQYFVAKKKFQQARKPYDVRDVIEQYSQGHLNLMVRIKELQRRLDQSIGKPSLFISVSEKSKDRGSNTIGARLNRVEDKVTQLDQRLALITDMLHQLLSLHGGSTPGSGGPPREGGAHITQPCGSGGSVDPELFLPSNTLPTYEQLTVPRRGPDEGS
- assay remarks: KCNQ1 channel current potentiators, confirmation, orthogonal assay for KCNQ1 potentiator project, IonWorks patch clamp, KCNQ1-CHO cells (AID 493184)
- test settings: automated patch clamp current, at 10 µM
Active and inactive are the calls of the source.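 Rule for the calls: active = current rise at least 3 SD above the untreated control mean in each of two repeat wells; inactive = the rest.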
Parameter call: string, one of active, inactive

Example results:
1) CCOC(=O)c1sc2nc(C)nc(SCC(=O)N(C)C3CCS(=O)(=O)C3)c2c1C (stereo not drawn) : inactive
2) O=C(NC(=S)Nc1ccccc1N1CCCC1)c1ccccc1Br : inactive
3) C/C(=N\NS(=O)(=O)c1ccc(Br)cc1)c1cccs1 : inactive
4) Cc1ccc(C(=O)C2=C(O)C(=O)N(CCCN3CCOCC3)C23C(=O)N(C)c2ccccc23)o1 (stereo not drawn) : inactive
5) O=C(Nc1nnc(C2=COCCO2)o1)c1ccc(Br)cc1 : inactive

Query block: Status in this test for CC12CCC(C(=O)N(CSC(=S)N/N=C\c3ccccc3)C1=O)C2(C)C (stereo not drawn) ?
Result block: inactive

Query block: Recorded test outcome, item "COc1ccc(-n2cc(-c3ccccc3)c3c(=S)nc[nH]c32)cc1"
Result block: inactive

Query block: I would be grateful if you could indicate the recorded call for "O=C(O)c1ccc2c(=O)n3cc(C(=O)c4ccccc4O)cc(Cl)c3nc2c1" .
Result block: inactive

Query block: Dear all, I need the recorded test outcome for "C=CCn1c(=S)[nH]c2ccc(Br)cc2c1=O" , thank you.
Result block: inactive

Query block: Hi, sorry to bother you, what did the test record for "Cc1noc(C)c1COc1ccc(CC(=O)NCc2ccccc2)cc1" ?
Result block: inactive

---

- assay remarks: calcium flux inhibitors in TRPC4/5HT1a cells, confirmation, counter-screen for TRPC4 inhibitor project, cell-based, second counter screen, HEK293 TRPC4/5HT1a, Fluo-4 (AID 434978);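 as to outcome: serotonin given first at submaximal then at maximal dose after compound preincubation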
- test settings: Fluo-4 calcium flux, at 10 µM, serotonin added to trigger calcium flux
Active and inactive are the calls of the source.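 How the source made its calls: active means primary screen active whose calcium signal fell more than 3 SD beyond the full-serotonin control mean in both duplicate plates; inactive means the rest.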
Would you mind answering with one of these outcomes? active, inactive

Query block: Identify the outcome logged in this assay for the compound shown: "CCOc1ccc2ncc(C(=O)c3ccc(OC)cc3)c(N3CCN(CC)CC3)c2c1"
Result block: inactive

Query block: Look up the recorded call for "Cc1cc(C)c(C)c(OCCCN(C)C)c1" in this test.
Result block: inactive

Query block: Short answer needed: outcome of this test for Cc1cccc(NC(=S)NCC(c2cccnc2)N(C)C)c1 (stereo unspecified) ?
Result block: inactive

Query block: Each compound tested received a call. Report the one for "O=c1c2c(-c3ccccc3)csc2ncn1/N=C/c1cccc([N+](=O)[O-])c1O" .
Result block: active

Query block: Could you check what this test reported for CN(C)C(CNC(=O)c1cc2ccccc2oc1=O)c1ccccc1 (stereo unspecified) ?
Result block: inactive

---

- measurement target: Potassium voltage-gated channel subfamily KQT member 1 (Homo sapiens)
- assay remarks: KCNQ1 potassium channel potentiators, confirmation, FluxOR thallium flux, CHO cells, duplicates (AID 493007);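 as to potentiation: 0% = buffer-only wells and 100% = R-L3 activator control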
- test settings: KCNQ1 cell line, FluxOR thallium flux fluorescence, at 10 µM; active compounds read high, % of reference activator effect, buffer zero
The source made the active and inactive calls.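 Rule for the calls: active = potentiation averaged over duplicate wells exceeding buffer-only control mean by more than 3 SD; inactive = the rest.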
quantity measured: potentiation

Consider the worked cases shown below.
1. COc1cc(CNCc2ccccn2)ccc1OCc1ccc(Cl)cc1 : inactive
2. S=c1[nH]c(-c2ccccc2)cs1 : 184% (active)
3. CCn1nnc2cc(C(=O)Nc3cc(S(C)(=O)=O)ccc3Cl)ccc21 : inactive
4. S=c1[nH]nc(-c2ccco2)n1/N=C/c1cccc(Cl)c1Cl : 23.5% (active)
5. Cc1ccc(/C(O)=C/C(=O)C(=O)NC23CC4CC(CC(C4)C2)C3)cc1 : 167% (active)

Now examine the next entry.
Query block: Please look up its potentiation: "Cc1cc(C(c2cc(C)c(N)c(C)c2)c2ccco2)cc(C)c1N"
Result block: 138% (active)

---

- assay remarks: thallium flux activation in parental CHO cells, counter-screen for KCNQ1 potentiator project (AID 493006);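 as to activation: fluorescence ratio of max minus min over baseline after K+ and Tl+ depolarization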
- test settings: parental CHO-K1 cells, FluxOR thallium flux, at 10 µM
Activity calls are given as the source filed them.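 Rule for the calls: active = duplicate-averaged activation above buffer control mean plus 5 SD of those controls; inactive = the rest.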
Tick one outcome: active, inactive

Consider the worked cases shown below.
1) C=C1CCN(c2ccc(C(=O)NCc3ccc(C)cc3)cc2[N+](=O)[O-])CC1 : active
2) O=C(NC(=S)Nc1ccccc1F)c1ccc(Br)o1 : active
3) O=C(ONC1=NCCCCC1)c1ccc(Cl)cc1 : inactive
4) C=CCn1c(O)c(N=NC(=S)Nc2cccc(C)c2)c2ccccc21 : active

Query block: Each compound tested received a call. Report the one for Cn1ccnc1C(OC(=O)c1ccc(Cl)cc1)C(F)(F)F (stereo not drawn) .
Result block: inactive

---

- measurement target: Potassium voltage-gated channel subfamily KQT member 1 (Homo sapiens) (UniProt P51787)
- assay remarks: KCNQ1 potassium channel potentiators, confirmation, FluxOR thallium flux, CHO cells, duplicates (AID 493007)
- test settings: KCNQ1 cell line, FluxOR thallium flux fluorescence, at 10 µM, % of reference activator effect, buffer zero
The source made the active and inactive calls.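 The calls were made as follows: active = potentiation averaged over duplicate wells exceeding buffer-only control mean by more than 3 SD; inactive = the rest.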
Mark one answer only. Choices: active, inactive

1. OCCN1CCN(Cc2cc(Br)cc(Br)c2O)CC1 : inactive
2. CCOc1ccccc1NC(=O)C(=O)CC(=O)c1cccc(OC)c1 : active
3. O=C(O)CSc1c2c(nc3cc(C(=O)Nc4cccc(C(F)(F)F)c4)ccc13)CCC2 : inactive

Query block: Dear all, I need the recorded test outcome for Cc1ccccc1NC(=S)NNC(=O)c1csc2c1CCC(C)C2 (stereo unspecified) , thank you.
Result block: active

---

- measurement target: Short transient receptor potential channel 4 (Mus musculus)
- assay remarks: calcium flux activators in TRPC4/5HT1a cells, counter-screen for TRPC4 activator project, cell-based, second counter screen, HEK293 TRPC4/5HT1a, Fluo-4 (AID 434977)
- test settings: Fluo-4 calcium flux, at 10 µM
Calls of active or inactive are those of the source.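 Rule for the calls: active = calcium signal rise above buffer-control mean plus 5 SD in both duplicates, and also a hit in the primary screen; inactive = the rest.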
Give one outcome, nothing more. List: label 1 (active), label 0 (inactive)

1. Cc1cc(NCc2ccccc2)nc2ccccc12 : label 1
2. COc1ccc(-c2nc(CN3CCC(C(=O)NC4CCCC4)CC3)c(C)o2)cc1OC : label 0
3. Cc1cccc(C(=O)NNC(=S)NC(=O)c2ccccc2)c1 : label 1
4. COc1cccc(C(=O)N(C)CC2CCN(CCc3cccc(C(F)(F)F)c3)CC2)c1 : label 0
5. CN(C)C(CNC(=O)C1CC(=O)N(Cc2ccccc2)C1)c1ccccc1 (configuration not stated) : label 0

Query block: How was COc1cccc(-c2nn(-c3ccccc3)cc2CN(C)C(C)c2ccncn2)c1 (configuration not stated) classified in this test?
Result block: label 0

Query block: Outcome? O=C(C1CCCN(Cc2ccncc2)C1)N1CCc2ccccc2C1 (configuration not stated)
Result block: label 1

Query block: Please share the test call associated with "COc1ccccc1CCC(=O)Nc1cc(S(=O)(=O)N2CCCCC2)ccc1N1CCN(C)CC1" .
Result block: label 1

Query block: // return assay outcome for CCCC(=O)NC(C)C(c1cccs1)N1CCN(c2ccccc2)CC1 (configuration not stated)
Result block: label 0

Query block: Record lookup: outcome of this test for "Cc1ccc(N2CCN(c3ccc(NCc4nc5ccccc5n4C)cc3)CC2)cc1" ?
Result block: label 0
